target.desc: Glutamate NMDA receptor
experiment.notes: Concentration which causes 50% reduction in receptor binding affinity against N-methyl-D-aspartate glutamate receptor (NMDA) using [3H]CPP
Provide the recorded IC50 for the entries that follow.

INSERT INTO assay_data (smiles_input, measured) VALUES
  ('N[C@@H](Cc1o[nH]c(=O)c1-c1ccccn1)C(=O)O', '> 100 µM');

Can you give me IC50 for all of these, one by one?
1. N[C@@H](Cc1onc(O)c1-c1ccc(O)cc1)C(=O)O
2. N[C@@H](Cc1cc(=O)[nH]o1)C(=O)O
3. N[C@@H](Cc1onc(O)c1-c1ccccc1)C(=O)O
4. N[C@@H](Cc1o[nH]c(=O)c1CCc1ccccc1)C(=O)O
5. N[C@@H](Cc1onc(O)c1-c1cccc(O)c1)C(=O)O
6. N[C@@H](Cc1onc(O)c1-c1ccc2ccccc2c1)C(=O)O
7. N[C@@H](Cc1onc(O)c1-c1ccccc1O)C(=O)O
8. N[C@@H](Cc1o[nH]c(=O)c1-c1cccc2ccccc12)C(=O)O

20 µM
> 100 µM
> 100 µM
> 100 µM
42 µM
14 µM
> 100 µM
> 100 µM

* * *

target.desc: Glutamate receptor ionotropic, AMPA (Rattus norvegicus, UniProt P19490+P19491+P19492+P19493)
experiment.notes: Concentration which causes 50% reduction in receptor binding affinity against Ionotropic glutamate receptor AMPA using [3H]AMPA
property: IC50

Kindly note the recorded IC50 for "N[C@@H](Cc1o[nH]c(=O)c1-c1cccc2ccccc12)C(=O)O" , which is > 100 µM

* * *

target.desc: Glutamate receptor ionotropic, AMPA (Rattus norvegicus, UniProt P19490+P19491+P19492+P19493)
experiment.notes: Concentration which causes 50% reduction in receptor binding affinity against Ionotropic glutamate receptor AMPA using [3H]AMPA
Assay type: protein-complex assay
Provide the recorded IC50 for the entries that follow.

INSERT INTO measurements (smiles_input, measured) VALUES
  ('N[C@@H](Cc1onc(O)c1-c1ccccc1O)C(=O)O', '> 100 µM'),
  ('N[C@@H](Cc1onc(O)c1-c1ccc2ccccc2c1)C(=O)O', '> 100 µM'),
  ('N[C@@H](Cc1onc(O)c1-c1cccc(O)c1)C(=O)O', '62 µM'),
  ('N[C@@H](Cc1onc(O)c1-c1ccc(O)cc1)C(=O)O', '> 100 µM'),
  ('N[C@@H](Cc1o[nH]c(=O)c1CCc1ccccc1)C(=O)O', '> 100 µM');

Can you give me IC50 for all of these, one by one?
1. N[C@@H](Cc1o[nH]c(=O)c1-c1ccccn1)C(=O)O
2. N[C@@H](Cc1onc(O)c1-c1ccccc1)C(=O)O

["1.3 µM", "> 100 µM"]

* * *

target.desc: Metabotropic glutamate receptor 1 (Rattus norvegicus)
Sequence (P23385 whole entry): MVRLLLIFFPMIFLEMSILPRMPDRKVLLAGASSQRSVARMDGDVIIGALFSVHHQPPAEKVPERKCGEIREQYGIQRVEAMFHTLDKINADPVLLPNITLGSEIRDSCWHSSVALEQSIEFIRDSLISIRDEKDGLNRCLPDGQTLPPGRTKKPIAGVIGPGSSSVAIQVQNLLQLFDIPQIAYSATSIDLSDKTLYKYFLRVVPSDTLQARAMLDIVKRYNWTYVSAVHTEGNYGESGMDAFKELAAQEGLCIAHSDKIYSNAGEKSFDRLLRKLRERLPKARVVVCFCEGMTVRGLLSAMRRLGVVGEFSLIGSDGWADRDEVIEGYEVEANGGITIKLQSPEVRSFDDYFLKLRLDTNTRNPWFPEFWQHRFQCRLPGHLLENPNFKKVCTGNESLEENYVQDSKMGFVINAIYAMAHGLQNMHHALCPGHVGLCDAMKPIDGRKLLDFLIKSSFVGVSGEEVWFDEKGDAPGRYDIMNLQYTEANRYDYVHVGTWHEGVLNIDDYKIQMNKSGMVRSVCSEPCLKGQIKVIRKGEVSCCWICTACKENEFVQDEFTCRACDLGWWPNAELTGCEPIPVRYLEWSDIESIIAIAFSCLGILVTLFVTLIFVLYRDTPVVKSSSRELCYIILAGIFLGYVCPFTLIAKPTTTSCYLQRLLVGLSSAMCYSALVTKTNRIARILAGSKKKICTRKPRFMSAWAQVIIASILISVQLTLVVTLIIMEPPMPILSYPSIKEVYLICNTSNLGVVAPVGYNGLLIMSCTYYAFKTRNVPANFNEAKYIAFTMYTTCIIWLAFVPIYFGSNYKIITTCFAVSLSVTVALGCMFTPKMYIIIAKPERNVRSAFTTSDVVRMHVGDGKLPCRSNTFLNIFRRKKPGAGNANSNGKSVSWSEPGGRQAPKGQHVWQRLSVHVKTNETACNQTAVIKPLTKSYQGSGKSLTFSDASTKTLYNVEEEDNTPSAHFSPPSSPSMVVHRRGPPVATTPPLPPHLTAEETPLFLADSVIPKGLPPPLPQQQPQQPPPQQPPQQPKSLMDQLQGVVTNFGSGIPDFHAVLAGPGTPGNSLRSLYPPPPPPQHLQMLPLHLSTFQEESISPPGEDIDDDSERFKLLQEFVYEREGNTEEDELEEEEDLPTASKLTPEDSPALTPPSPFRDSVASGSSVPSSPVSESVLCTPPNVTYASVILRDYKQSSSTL
pKi: −log10 of the molar value.
Hi, to clarify the labels: Satisfied covers pKi from 4 upward, Not satisfied covers anything below 4.

INSERT INTO results (smiles_input, class) VALUES
  ('N[C@@H](Cc1onc(O)c1-c1ccc(O)cc1)C(=O)O', 'Satisfied'),
  ('N[C@@H](Cc1onc(O)c1-c1ccccc1)C(=O)O', 'Not satisfied'),
  ('N[C@@H](Cc1cc(=O)[nH]o1)C(=O)O', 'Not satisfied');

Can "N[C@@H](Cc1onc(O)c1-c1ccc2ccccc2c1)C(=O)O" be said to have pKi at or above 4? Not satisfied

Can "N[C@@H](Cc1onc(O)c1-c1cccc(O)c1)C(=O)O" be said to have pKi at or above 4? Not satisfied

Source of measurements: ChEMBL document CHEMBL1135727
